# PROCEDURE TEXT: Plasma Tmax in rat (PO dose)
# Assay type: ADME, organism-based
READOUT KIND: Tmax (h)
Answer with a number only, understood to be in h.

What value of Tmax has been reported for the following molecule? Cc1cccc(N2CC(C)NC(=O)N2)n1 (stereo not drawn)
1

What value of Tmax has been reported for the following molecule? O=C1NCCN(c2cccc(-c3cccs3)c2)N1
1

What value of Tmax has been reported for the following molecule? CSc1cccc(N2CCNC(=O)N2)c1
1

What value of Tmax has been reported for the following molecule? O=C1NCCN(c2ccccn2)N1
1

What value of Tmax has been reported for the following molecule? Cc1cccc(N2CCNC(=O)N2)n1
1

What value of Tmax has been reported for the following molecule? Nc1cccc(N2CCNC(=O)N2)c1
1.1

What value of Tmax has been reported for the following molecule? CCCCC1CN(c2ccccc2)NC(=O)N1 (stereo not drawn)
1

What value of Tmax has been reported for the following molecule? Cc1ccc(N2CCNC(=O)N2)cc1
1.1

What value of Tmax has been reported for the following molecule? Cc1cccc(N2CC(C)NC(=O)N2)c1 (stereo not drawn)
2.2

What value of Tmax has been reported for the following molecule? CC(C)C1CN(c2ccccc2)NC(=O)N1 (stereo not drawn)
2

What value of Tmax has been reported for the following molecule? O=C1NCCN(c2cccc([N+](=O)[O-])c2)N1
2

What value of Tmax has been reported for the following molecule? CC1CN(c2ccccc2)NC(=O)N1 (stereo not drawn)
2

What value of Tmax has been reported for the following molecule? O=C1NCCN(c2cccc(Br)n2)N1
1

What value of Tmax has been reported for the following molecule? O=C1NCCN(c2cccc(OCc3ccccc3)c2)N1
1

What value of Tmax has been reported for the following molecule? Cc1ccccc1N1CCNC(=O)N1
2.1

What value of Tmax has been reported for the following molecule? CCC1CN(c2ccccc2)NC(=O)N1 (stereo not drawn)
1.2

What value of Tmax has been reported for the following molecule? CC1(C)CN(c2ccccc2)NC(=O)N1
2.2

What value of Tmax has been reported for the following molecule? CC1CN(c2cccc(Br)n2)NC(=O)N1 (stereo not drawn)
2

What value of Tmax has been reported for the following molecule? O=C1NCCN(c2nc3ccccc3s2)N1
2

What value of Tmax has been reported for the following molecule? COc1cccc(N2CC(C)NC(=O)N2)n1 (stereo not drawn)
1

What value of Tmax has been reported for the following molecule? O=C1NCCN(c2cccc(F)c2)N1
1

What value of Tmax has been reported for the following molecule? O=C1NCCN(c2cccc(Br)c2)N1
4.2

What value of Tmax has been reported for the following molecule? CC1CN(c2cccc(-c3cccs3)c2)NC(=O)N1 (stereo not drawn)
4

What value of Tmax has been reported for the following molecule? CC1CN(c2cccc(Br)c2)NC(=O)N1 (stereo not drawn)
7.2

What value of Tmax has been reported for the following molecule? COc1cccc(N2CCNC(=O)N2)c1
1.2

What value of Tmax has been reported for the following molecule? CC1CN(c2cccc(Cl)n2)NC(=O)N1 (stereo not drawn)
2

What value of Tmax has been reported for the following molecule? CC1CN(c2cccc(F)c2)NC(=O)N1 (stereo not drawn)
7.2

What value of Tmax has been reported for the following molecule? O=C1NCCN(c2ccnc3cc(Cl)ccc23)N1
4

What value of Tmax has been reported for the following molecule? O=C1NCCN(c2cccc(Cl)c2)N1
2

What value of Tmax has been reported for the following molecule? O=C1NCCN(c2cccc(-c3ccsc3)c2)N1
1

What value of Tmax has been reported for the following molecule? Cc1cc(C)cc(N2CCNC(=O)N2)c1
4

What value of Tmax has been reported for the following molecule? CC1CN(c2cccc(Cl)c2)NC(=O)N1 (stereo not drawn)
4

What value of Tmax has been reported for the following molecule? O=C1NCCN(c2cnc3ccccc3c2)N1
1

* * *

# TARGET ENTITY: Polyunsaturated fatty acid 5-lipoxygenase (Rattus norvegicus, UniProt P12527)
# Sequence (P12527 whole entry): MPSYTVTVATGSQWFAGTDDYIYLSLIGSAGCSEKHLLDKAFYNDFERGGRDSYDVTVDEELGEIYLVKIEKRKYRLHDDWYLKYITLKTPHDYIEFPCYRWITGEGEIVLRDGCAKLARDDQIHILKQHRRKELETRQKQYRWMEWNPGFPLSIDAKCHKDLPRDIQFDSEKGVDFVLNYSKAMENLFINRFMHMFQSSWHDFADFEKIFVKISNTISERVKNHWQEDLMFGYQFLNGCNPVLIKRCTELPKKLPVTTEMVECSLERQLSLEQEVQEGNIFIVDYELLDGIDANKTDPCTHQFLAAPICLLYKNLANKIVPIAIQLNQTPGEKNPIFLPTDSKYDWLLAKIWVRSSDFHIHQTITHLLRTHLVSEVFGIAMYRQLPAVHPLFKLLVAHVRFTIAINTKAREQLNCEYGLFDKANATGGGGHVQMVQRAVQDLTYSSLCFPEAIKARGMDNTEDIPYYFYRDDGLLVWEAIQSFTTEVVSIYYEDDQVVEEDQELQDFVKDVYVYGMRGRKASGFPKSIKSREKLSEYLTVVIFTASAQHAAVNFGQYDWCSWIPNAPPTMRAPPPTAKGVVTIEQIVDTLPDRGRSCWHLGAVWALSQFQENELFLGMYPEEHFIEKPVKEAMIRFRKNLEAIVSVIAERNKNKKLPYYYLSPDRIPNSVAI
# PROCEDURE TEXT: Inhibition of 5-lipoxygenase catalysis in rat basophilic leukemia (RBL) cells by measuring 5-HETE product formation
# Format: cell-based, RBL-1
READOUT KIND: log10 IC50 (log10 of the value in µM)
Hi team, quick reminder: these entries are log10 of IC50 (µM).

What value of log10 IC50 has been reported for the following molecule? CC1CN(c2cccc(Br)c2)NC(=O)N1 (stereo unspecified)
0.41

What value of log10 IC50 has been reported for the following molecule? Cc1ccccc1N1CCNC(=O)N1
2.59

What value of log10 IC50 has been reported for the following molecule? CC1(C)CN(c2ccccc2)NC(=O)N1
0.83

What value of log10 IC50 has been reported for the following molecule? Cc1cccc(N2CC(C)NC(=O)N2)c1 (stereo unspecified)
0.11

What value of log10 IC50 has been reported for the following molecule? CC1CN(c2cccc(F)n2)NC(=O)N1 (stereo unspecified)
0.82

What value of log10 IC50 has been reported for the following molecule? COc1cccc(N2CC(C)NC(=O)N2)n1 (stereo unspecified)
0.74

* * *

# TARGET ENTITY: Polyunsaturated fatty acid 5-lipoxygenase (Rattus norvegicus)
# PROCEDURE TEXT: Inhibition of 5-lipoxygenase catalysis in rat basophilic leukemia (RBL) cells by measuring 5-HETE product formation
# Format: cell-based, RBL-1
READOUT KIND: pIC50
Field pIC50 (float): negative decimal logarithm of the concentration in molar.

What value of pIC50 has been reported for the following compound? Cc1cccc(N2CC(C)N(O)C(=O)N2)c1 (stereo not given)
5.08

What value of pIC50 has been reported for the following compound? CC1CN(c2ccccc2)NC(=O)N1 (stereo not given)
4.96

What value of pIC50 has been reported for the following compound? CC1CN(c2ccccc2)NC(=O)N1O (stereo not given)
5.22

What value of pIC50 has been reported for the following compound? O=C1NCCN(c2cccc(-c3cccs3)c2)N1
5.68

What value of pIC50 has been reported for the following compound? O=C1NCCN(c2ccncc2)N1
4.49

* * *

# PROCEDURE TEXT: Plasma Cmax in rat (PO dose)
# Format: ADME, organism-based
# Parameters: route oral
READOUT KIND: Cmax (µM)
Answer with a number only, understood to be in µM.

What value of Cmax has been reported for the following molecule? Cc1cccc(N2CC(C)NC(=O)N2)n1 (centres undefined)
125

What value of Cmax has been reported for the following molecule? COc1cccc(N2CCNC(=O)N2)n1
101

What value of Cmax has been reported for the following molecule? O=C1NCCN(c2nc3ccccc3s2)N1
123

What value of Cmax has been reported for the following molecule? O=C1NCCN(c2cccc([N+](=O)[O-])c2)N1
62

* * *

For each entry below, report its pIC50 value.
# TARGET ENTITY: Polyunsaturated fatty acid 5-lipoxygenase (Homo sapiens, UniProt P09917)
# Sequence (P09917 whole entry): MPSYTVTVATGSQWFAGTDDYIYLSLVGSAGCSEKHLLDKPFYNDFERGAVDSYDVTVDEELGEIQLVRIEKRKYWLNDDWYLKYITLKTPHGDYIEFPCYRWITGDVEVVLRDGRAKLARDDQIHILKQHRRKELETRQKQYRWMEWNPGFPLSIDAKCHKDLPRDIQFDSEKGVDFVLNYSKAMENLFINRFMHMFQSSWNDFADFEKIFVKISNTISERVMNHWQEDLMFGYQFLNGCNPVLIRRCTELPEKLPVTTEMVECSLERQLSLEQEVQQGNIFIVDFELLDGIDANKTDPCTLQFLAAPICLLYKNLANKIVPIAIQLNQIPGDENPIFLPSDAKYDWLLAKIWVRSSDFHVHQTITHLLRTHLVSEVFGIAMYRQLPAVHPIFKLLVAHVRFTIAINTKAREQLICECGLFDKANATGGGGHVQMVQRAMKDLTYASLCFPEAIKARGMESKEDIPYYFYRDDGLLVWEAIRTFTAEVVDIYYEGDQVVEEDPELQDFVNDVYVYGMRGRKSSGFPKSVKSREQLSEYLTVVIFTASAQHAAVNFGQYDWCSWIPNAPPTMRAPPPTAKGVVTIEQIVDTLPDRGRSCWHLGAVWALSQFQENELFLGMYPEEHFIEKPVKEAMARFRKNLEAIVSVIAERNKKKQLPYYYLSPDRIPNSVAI
# PROCEDURE TEXT: In vitro 5-lipoxygenase inhibitory activity against calcium ionophore (A23187) induced LTB4 formation in human whole blood.
Field pIC50 (float): negative decimal logarithm of the concentration in molar.

What value of pIC50 has been reported for the following molecule? Cc1cccc(N2CC(C)N(O)C(=O)N2)c1 (stereo not given)
5.32

What value of pIC50 has been reported for the following molecule? Cc1cccc(N2CCNC(=O)N2)n1
5.10

What value of pIC50 has been reported for the following molecule? COc1cccc(N2CC(C)NC(=O)N2)n1 (stereo not given)
5.15

What value of pIC50 has been reported for the following molecule? O=C1NC(Oc2ccc(F)cc2)CN(c2ccccc2)N1 (stereo not given)
5.59

What value of pIC50 has been reported for the following molecule? CC1CN(c2cccc(Cl)c2)NC(=O)N1 (stereo not given)
5.57

What value of pIC50 has been reported for the following molecule? O=C1NCCN(c2cccc(-c3cccs3)c2)N1
5.06

What value of pIC50 has been reported for the following molecule? O=C1NCCN(c2cc(F)cc(F)c2)N1
5.34

What value of pIC50 has been reported for the following molecule? CC1CN(c2cccc(Br)c2)NC(=O)N1 (stereo not given)
5.28

What value of pIC50 has been reported for the following molecule? O=C1NCCN(c2cccc(-c3ccsc3)c2)N1
5.28

What value of pIC50 has been reported for the following molecule? CCC1CN(c2ccccc2)NC(=O)N1 (stereo not given)
5.42

What value of pIC50 has been reported for the following molecule? CC1CN(c2cccc(Br)n2)NC(=O)N1 (stereo not given)
5.51

What value of pIC50 has been reported for the following molecule? CC1CN(c2cccc(-c3ccco3)c2)NC(=O)N1 (stereo not given)
5.08

What value of pIC50 has been reported for the following molecule? O=C1NCCN(c2cccc(Cl)c2)N1
5.68

What value of pIC50 has been reported for the following molecule? O=C1NCCN(c2cccc(Br)n2)N1
5.34

What value of pIC50 has been reported for the following molecule? COc1cccc(N2CCNC(=O)N2)n1
5.46
